Conditions: 308.15 K; 101.33 kPa; Liquid; Cone and plate viscometry
Labelling field: enter rule met if recorded viscosity is less than 300 mPa·s. Enter rule not met if it equals or exceeds that cut-off.

>  <compound>
CCCCCCCC[P+](CC)(CC)CC.Cc1ncc([N+](=O)[O-])[n-]1 [triethyloctylphosphonium 2-methyl-5-nitroimidazolide]

>  <group.label>
rule not met

$$$$
>  <compound>
CCCCCCCCCCCCCC[P+](CCCCCC)(CCCCCC)CCCCCC.O=[N+]([O-])c1cn[n-]c1 [trihexyl(tetradecyl)phosphonium 4-nitropyrazolide]

>  <group.label>
rule not met

$$$$
>  <compound>
CCCC[P+](CC)(CC)CC.Cc1ncc([N+](=O)[O-])[n-]1 [butyltriethylphosphonium 2-methyl-5-nitroimidazolide]

>  <group.label>
rule met

$$$$
>  <compound>
CC(=O)[O-].CCCCCCn1cc[n+](C)c1 [3-hexyl-1-methylimidazolium acetate]

>  <group.label>
rule not met

$$$$
>  <compound>
CCC=Cn1cc[n+](C)c1C.O=[N+]([O-])c1cn[n-]c1 [1-but-1-enyl-2,3-dimethylimidazolium 4-nitropyrazolide]

>  <group.label>
rule met

$$$$
